Experiment: in vitro
Conditions: human, liver microsomes
Description: Metabolic stability in human liver microsomes assessed as intrinsic clearance at 0.5 uM incubated for 30 mins by LC-MS/MS analysis
Readout: CLint scaled at 0.5 h, 0.5 µM (mL/min/kg)

Examples from the recorded data:
>  <Molecule>
COc1ccc(OC)c2[nH]c(C(=O)N3CCCC(c4cc5ncccc5[nH]4)C3)cc12 (stereo not given)

>  <Readout>
CLint scaled at 0.5 h, 0.5 µM

>  <Measured>
235

$$$$
>  <Molecule>
CC(C)c1cc(C(=O)N2CC=C(c3cc4ncccc4[nH]3)CC2)on1

>  <Readout>
CLint scaled at 0.5 h, 0.5 µM

>  <Measured>
119

$$$$
>  <Molecule>
O=C(c1cc(C2CC2)no1)N1CCCC(c2cc3ncccc3[nH]2)C1 (stereo not given)

>  <Readout>
CLint scaled at 0.5 h, 0.5 µM

>  <Measured>
39.5

$$$$
>  <Molecule>
O=C(c1ccc(F)cc1)N1CCCC(c2cc3nc(N4CCCC4)ccc3[nH]2)C1 (stereo not given)

>  <Readout>
CLint scaled at 0.5 h, 0.5 µM

>  <Measured>
92.5

$$$$
>  <Molecule>
COc1cc(C(=O)N2CCCC(c3cc4ncccc4[nH]3)C2)on1 (stereo not given)

>  <Readout>
CLint scaled at 0.5 h, 0.5 µM

>  <Measured>
57.8

$$$$

I: O=C(c1ccc(F)cc1)N1CCCC(c2cc3nc(C(F)(F)F)ccc3[nH]2)C1 (stereo not given)
II: O=C(c1ccc(F)cc1)N1CCCC(c2cc3ncccc3[nH]2)C1 (stereo not given)
III: O=C(c1ccc(F)cc1)N1CCCC(c2cc3ncc(Cl)cc3[nH]2)C1 (stereo not given)
[in] Highest CLint scaled at 0.5 h, 0.5 µM first, then in falling order down to the smallest. To answer, arrange all of the labels according to the requested order.
[out] I, III, II

====

Tested on: Trypanosoma brucei rhodesiense
Test: microbe, parasite or virus in culture
Conditions: STIB900, 72 h
Description: Antiprotozoal activity against Trypanosoma brucei rhodesiense STIB900 trypomastigotes incubated for 72 hrs by resazurin dye based fluorimetric analysis
Readout: IC50 (µM)

>  <Molecule>
CN(CCc1cc2ncccc2[nH]1)C(=O)c1ccccc1

>  <Units Text>
µM

>  <Measured>
64

$$$$

I: CC(=O)N1C=C(c2cc3ncccc3[nH]2)CCC1
II: O=C(c1ccccc1)N1CC=C(c2cc3ncccc3[nH]2)CC1
III: COc1cccc2[nH]c(C(=O)N3CCCC(c4cc5ncccc5[nH]4)C3)cc12 (stereo unspecified)
[in] Hey, quick one: sort these by IC50, low to high? To answer, arrange all of the labels according to the requested order.
[out] III, II, I
(III: 5.88 µM, II: 30.3 µM, I: 64 µM)

====

Assay: in vitro
Conditions: human, MRC5 SV2 cells
Description: Selectivity index, ratio of IC50 for human MRC5 SV2 cells to IC50 for Trypanosoma brucei Squib 427
Reported selectivity ratio is given for each of the following compounds.
Answer with a number only.

Examples from the recorded data:
>  <Compound>
O=C(c1cc(C(F)(F)F)no1)N1CCCC(c2cc3nc(NCc4ccccc4)ccc3[nH]2)C1 (stereo not given)

>  <selectivity ratio>
0.894

$$$$
>  <Compound>
CN(C(=O)c1ccccc1)c1cccc(-c2cc3ncccc3[nH]2)c1

>  <selectivity ratio>
0.849

$$$$
>  <Compound>
O=C(c1ccc(F)cc1)N1CCCC(c2cc3ncc(Cl)cc3[nH]2)C1 (stereo not given)

>  <selectivity ratio>
2.16

$$$$
>  <Compound>
O=C(c1ccccc1)N1CCCC(c2cn3nc(Cl)ccc3n2)C1 (stereo not given)

>  <selectivity ratio>
1.37

$$$$

Turning to the following compound.
The reported selectivity ratio of the compound CC(C)c1cc(C(=O)N2CC=C(c3cc4ncccc4[nH]3)CC2)on1 was 1.74
